Molecular target: α1-adrenoceptor (3H-prazosin binding sites)
Experiment: displacement of 3H-prazosin from rat cerebral cortical (brain) membranes
Details: 3H-prazosin displacement, rat cerebral cortical membranes
metric.name: -logIC50

# compound, subject.of.test, numeric.readout
records = [
    ("COc1cc2nc(N3CCN(C(=O)[C@@H]4O[C@H]4c4ccccc4)CC3)nc(N)c2cc1OC (relative stereo)", "α1-adrenoceptor (3H-prazosin binding sites)", 7.45),
    ("COc1cc2nc(N3CCN(C(=O)C=Cc4ccc(Br)cc4)CC3)nc(N)c2cc1OC", "α1-adrenoceptor (3H-prazosin binding sites)", 7.10),
    ("COc1cc2nc(N3CCN(S(=O)(=O)c4ccc(C)cc4)CC3)nc(N)c2cc1OC", "α1-adrenoceptor (3H-prazosin binding sites)", 7.94),
    ("COc1cc2nc(N3CCN(C(=S)NC4CCCCC4)CC3)nc(N)c2cc1OC", "α1-adrenoceptor (3H-prazosin binding sites)", 8.27),
    ("COc1cc2nc(N3CCN(C(=O)/C=C/c4ccc(N=[N+]=[N-])cc4)CC3)nc(N)c2cc1OC", "α1-adrenoceptor (3H-prazosin binding sites)", 9.49),
    ("COc1cc2nc(N3CCN(C(=O)/C=C/c4ccccc4)CC3)nc(N)c2cc1OC", "α1-adrenoceptor (3H-prazosin binding sites)", 9.16),
    ("COc1cc2nc(N3CCN(C(=S)Nc4ccc(N=[N+]=[N-])cc4)CC3)nc(N)c2cc1OC", "α1-adrenoceptor (3H-prazosin binding sites)", 7.70),
    ("COc1cc2nc(N3CCN(C(=S)Nc4c(F)c(F)c(F)c(F)c4F)CC3)nc(N)c2cc1OC", "α1-adrenoceptor (3H-prazosin binding sites)", 7.80),
    ("COc1cc2nc(N3CCN(C(=O)c4cccc(CCl)c4)CC3)nc(N)c2cc1OC", "α1-adrenoceptor (3H-prazosin binding sites)", 7.93),
    ("COc1cc2nc(N3CCN(C(=O)C(F)=Cc4ccccc4)CC3)nc(N)c2cc1OC", "α1-adrenoceptor (3H-prazosin binding sites)", 7.89),
    ("COc1cc2nc(N3CCN(C(=O)c4ccco4)CC3)nc(N)c2cc1OC [Compound 1, reference compound]", "α1-adrenoceptor (3H-prazosin binding sites)", 9.79),
    ("COc1cc2nc(N3CCN(C(=O)[C@@H]4C[C@H]4c4ccccc4)CC3)nc(N)c2cc1OC (relative stereo)", "α1-adrenoceptor (3H-prazosin binding sites)", 9.29),
    ("C/C=C/C=C/C(=O)N1CCN(c2nc(N)c3cc(OC)c(OC)cc3n2)CC1", "α1-adrenoceptor (3H-prazosin binding sites)", 8.81),
    ("COc1cc2nc(N3CCN(C(=O)C=Cc4cccc(F)c4)CC3)nc(N)c2cc1OC", "α1-adrenoceptor (3H-prazosin binding sites)", 7.68),
    ("COc1cc2nc(N3CCN(C(=S)Nc4cccc5ccccc45)CC3)nc(N)c2cc1OC", "α1-adrenoceptor (3H-prazosin binding sites)", 7.41),
    ("COC(=O)/C=C/C(=O)Nc1ccc(/C=C/C(=O)N2CCN(c3nc(N)c4cc(OC)c(OC)cc4n3)CC2)cc1", "α1-adrenoceptor (3H-prazosin binding sites)", 7.79),
]
